Answer each item with its documented Activity.
tested-on: 5-lipoxygenase/FLAP (Homo sapiens) (UniProt P09917+P20292)
assay-procedure: Inhibition of 5-lipoxygenase/FLAP in calcium ionophore-stimulated human whole blood assessed as residual 15(s)HETE level at 10 uM preincubated for 15 mins prior to calcium ionophore-stimulation measured after 15 mins by LC-MS/MS analysis
Type: protein-complex assay
Answers are plain numbers, in %.

Lab note: each molecule below needs its Activity filled in.
1. CCCc1nc2ccc(NC(=O)c3ccccc3Cl)cc2c(=O)n1Cc1cccc(Cl)c1
2. CCCc1nc2ccc(NC(=O)c3ccccc3Cl)cc2c(=O)n1Cc1ccc(-c2ccc(Cl)cc2)cc1
3. CCCc1nc2ccc(NC(=O)c3ccccc3Cl)cc2c(=O)n1Cc1ccccc1Cl
4. CCCc1nc2ccc(NC(=O)c3ccccc3Cl)cc2c(=O)n1Cc1ccc(-c2cccc(Cl)c2)cc1
5. CCCc1nc2ccc(NC(=O)c3ccccc3Cl)cc2c(=O)n1Cc1ccc(-c2cccc(OC)c2)cc1
6. CCCc1nc2ccc(NC(=O)c3ccccc3C)cc2c(=O)n1Cc1cccc(Cl)c1
7. CCCc1nc2ccc(NC(=O)c3ccccc3Cl)cc2c(=O)n1Cc1ccc(-c2ccccc2)cc1

Resp:
1: 90.3; 2: 93.8; 3: 78.3; 4: 83.1; 5: 80; 6: 83.4; 7: 94.2

Req: Form entry - test system: 5-lipoxygenase/FLAP (Homo sapiens) (UniProt P09917+P20292); read-out: Activity; molecule: `CCCc1nc2ccc(NC(=O)c3c(F)cccc3Cl)cc2c(=O)n1Cc1cccc(Cl)c1`
Resp: 111

====

tested-on: Prostaglandin E synthase (Homo sapiens)
Sequence (whole entry): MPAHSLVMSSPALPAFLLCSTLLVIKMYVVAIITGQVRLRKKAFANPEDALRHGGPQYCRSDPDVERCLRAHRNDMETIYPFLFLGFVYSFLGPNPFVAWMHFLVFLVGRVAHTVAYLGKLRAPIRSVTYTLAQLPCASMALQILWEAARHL
assay-procedure: Inhibition of mPGES-1 derived from IL1beta and TNFalpha stimulated human HeLa cells microsomal fraction using PGH2 as substrate at 1 uM preincubated for 30 mins prior to substrate addition measured after 1 min by LC-MS/MS analysis relative to control
measured-metric: inhibition (%)
Numbers only, in %.

Please review the following examples before continuing.
CCCc1nc2ccc(NC(=O)C3CC3)cc2c(=O)n1Cc1ccc(-c2cccc(OC)c2)cc1    15.9
CCCc1nc2ccc(NC(=O)c3c(Cl)cccc3Cl)cc2c(=O)n1Cc1cccc(Cl)c1    61.3
CCCc1nc2ccc(NC(=O)c3ccccc3Cl)cc2c(=O)n1Cc1cccc(Cl)c1    86.3
O=C(Nc1ccc2nc(Cc3ccccc3)n(Cc3cccc(Cl)c3)c(=O)c2c1)c1ccccc1Cl    67.2

Next compound, inhibition to be filled in.
Req: Consider the compound shown here: `CCCc1nc2ccc(NC(=O)c3c(F)cccc3Cl)cc2c(=O)n1Cc1cccc(Cl)c1` What is its recorded inhibition?
Resp: 75.6

====

tested-on: Prostaglandin E synthase (Mus musculus)
assay-procedure: Inhibition of mPGES-1 derived from LPS stimulated mouse RAW264.7 cells microsomal fraction using PGH2 as substrate at 1 uM preincubated for 30 mins prior to substrate addition measured after 1 min by LC-MS/MS analysis relative to control
Answer each item with its documented inhibition.
Give bare numbers, in %.

Please review the following examples before continuing.
O=C(Nc1ccc2nc(Cc3ccccc3)n(Cc3cccc(Cl)c3)c(=O)c2c1)c1ccccc1Cl    3.8
CCCc1nc2ccc(NC(=O)c3ccccc3Cl)cc2c(=O)n1Cc1ccccc1Cl    15.2
CCCc1nc2ccc(NC(=O)c3ccccc3Cl)cc2c(=O)n1Cc1ccc(-c2cccc(OC)c2)cc1    15.3

Next compound, inhibition to be filled in.
Req: Form entry - test system: Prostaglandin E synthase (Mus musculus); read-out: inhibition; compound: `CCCc1nc2ccc(NC(=O)c3c(F)cccc3Cl)cc2c(=O)n1Cc1cccc(Cl)c1`
Resp: -8.7

====

tested-on: Prostaglandin G/H synthase 1 (Ovis aries)
assay-procedure: Inhibition of ovine COX1-mediated PGE2 synthesis using PGH2 as substrate at 1 uM by LC-MS/MS analysis relative to control
Answer each item with its documented inhibition.
Numbers only, in %.

CCCc1nc2ccc(NC(=O)c3ccccc3Cl)cc2c(=O)n1Cc1ccc(-c2cccc(OC)c2)cc1    20.1
CCCc1nc2ccc(NC(=O)c3ccccc3Cl)cc2c(=O)n1Cc1ccc(-c2ccccc2)cc1    8.4
CCCc1nc2ccc(NC(=O)c3ccccc3Cl)cc2c(=O)n1Cc1ccccc1Cl    16.1

Next compound, inhibition to be filled in.
Req: Consider the compound shown here: `CCCc1nc2ccc(NC(=O)c3ccccc3Cl)cc2c(=O)n1Cc1ccc(-c2ccc(Cl)cc2)cc1` What is its recorded inhibition?
Resp: 2.6

====

Answer each item with its documented Activity.
tested-on: Prostaglandin G/H synthase 1 (Homo sapiens) (UniProt P23219)
Sequence (P23219 whole entry): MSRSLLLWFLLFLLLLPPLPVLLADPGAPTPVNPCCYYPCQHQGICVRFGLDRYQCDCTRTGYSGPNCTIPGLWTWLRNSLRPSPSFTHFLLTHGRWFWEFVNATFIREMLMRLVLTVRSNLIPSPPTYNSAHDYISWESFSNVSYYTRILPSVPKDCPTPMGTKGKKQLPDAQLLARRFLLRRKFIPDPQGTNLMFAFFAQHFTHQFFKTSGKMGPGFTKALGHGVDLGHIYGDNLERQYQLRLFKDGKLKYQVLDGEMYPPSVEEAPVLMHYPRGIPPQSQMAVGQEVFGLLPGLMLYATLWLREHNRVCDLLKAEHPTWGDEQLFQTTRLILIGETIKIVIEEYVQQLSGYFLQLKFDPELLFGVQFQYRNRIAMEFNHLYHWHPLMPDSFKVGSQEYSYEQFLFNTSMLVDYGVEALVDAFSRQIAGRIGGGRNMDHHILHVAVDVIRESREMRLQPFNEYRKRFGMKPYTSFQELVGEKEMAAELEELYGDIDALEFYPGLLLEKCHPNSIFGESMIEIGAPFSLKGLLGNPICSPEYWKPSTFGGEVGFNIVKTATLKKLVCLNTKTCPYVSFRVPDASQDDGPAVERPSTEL
assay-procedure: Inhibition of COX1 in human whole blood assessed as residual TXB2 level at 10 uM after 1 hr by LC-MS/MS analysis relative to control
Answers are plain numbers, in %.

CCCc1nc2ccc(NC(=O)c3ccccc3Cl)cc2c(=O)n1Cc1ccc(-c2cccc(Cl)c2)cc1    90

Lab note: each compound below needs its Activity filled in.
1. CCCc1nc2ccc(NC(=O)c3ccccc3C)cc2c(=O)n1Cc1cccc(Cl)c1
2. CCCc1nc2ccc(NC(=O)c3ccccc3Cl)cc2c(=O)n1Cc1ccc(-c2ccc(Cl)cc2)cc1

Resp:
81.9
97.3

====

tested-on: Prostaglandin E synthase (Mus musculus) (UniProt Q9JM51)
Sequence (Q9JM51 whole entry): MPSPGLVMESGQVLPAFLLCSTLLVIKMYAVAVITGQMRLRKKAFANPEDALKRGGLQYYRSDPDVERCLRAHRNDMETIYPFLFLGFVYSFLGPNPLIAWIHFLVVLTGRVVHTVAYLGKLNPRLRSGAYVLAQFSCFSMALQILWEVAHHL
assay-procedure: Inhibition of mPGES-1 derived from LPS stimulated mouse RAW264.7 cells microsomal fraction using PGH2 as substrate at 1 uM preincubated for 30 mins prior to substrate addition measured after 1 min by LC-MS/MS analysis relative to control
Answer each item with its documented inhibition.
One number for each entry, in %.

Lab note: each molecule below needs its inhibition filled in.
1. CCCc1nc2ccc(NC(=O)c3ccccc3Cl)cc2c(=O)n1Cc1ccc(-c2ccccc2)cc1
2. CCCc1nc2ccc(NC(=O)c3ccccc3Cl)cc2c(=O)n1Cc1ccc(-c2cccc(Cl)c2)cc1
3. CCCc1nc2ccc(NC(=O)c3ccccc3Cl)cc2c(=O)n1Cc1ccc(-c2ccc(Cl)cc2)cc1
4. CCCc1nc2ccc(NC(=O)c3ccccc3Cl)cc2c(=O)n1Cc1cccc(Cl)c1
5. CCCc1nc2ccc(NC(=O)c3ccccc3C)cc2c(=O)n1Cc1cccc(Cl)c1

Resp:
11.8
8.4
12.4
9.5
6

====

tested-on: 5-lipoxygenase/FLAP (Homo sapiens) (UniProt P09917+P20292)
assay-procedure: Inhibition of 5-lipoxygenase/FLAP in calcium ionophore-stimulated human whole blood assessed as residual LTB4 level at 10 uM preincubated for 15 mins prior to calcium ionophore-stimulation measured after 15 mins by LC-MS/MS analysis
Format: protein-complex assay
Labelling: Activity reported below 80% becomes 1.0; at or above becomes 0.0.

Please review the following examples before continuing.
CCCc1nc2ccc(NC(=O)c3c(F)cccc3Cl)cc2c(=O)n1Cc1cccc(Cl)c1    0.0
CCCc1nc2ccc(NC(=O)c3ccccc3Cl)cc2c(=O)n1Cc1ccc(-c2cccc(Cl)c2)cc1    0.0
CCCc1nc2ccc(NC(=O)c3ccccc3Cl)cc2c(=O)n1Cc1ccc(-c2ccc(Cl)cc2)cc1    0.0
CCCc1nc2ccc(NC(=O)c3ccccc3Cl)cc2c(=O)n1Cc1cccc(Cl)c1    0.0

Req: Please indicate whether the reported Activity of `CCCc1nc2ccc(NC(=O)c3ccccc3Cl)cc2c(=O)n1Cc1ccc(-c2ccccc2)cc1` is strictly below 80%.
Resp: 1.0

Req: Please indicate whether the reported Activity of `CCCc1nc2ccc(NC(=O)c3ccccc3Cl)cc2c(=O)n1Cc1ccc(-c2cccc(OC)c2)cc1` is strictly below 80%.
Resp: 1.0

Req: Please indicate whether the reported Activity of `CCCc1nc2ccc(NC(=O)c3ccccc3C)cc2c(=O)n1Cc1cccc(Cl)c1` is strictly below 80%.
Resp: 1.0

Req: Please indicate whether the reported Activity of `CCCc1nc2ccc(NC(=O)c3ccccc3Cl)cc2c(=O)n1Cc1ccccc1Cl` is strictly below 80%.
Resp: 0.0

====

tested-on: Prostaglandin G/H synthase 2 (Homo sapiens) (UniProt P35354)
Sequence (P35354 whole entry): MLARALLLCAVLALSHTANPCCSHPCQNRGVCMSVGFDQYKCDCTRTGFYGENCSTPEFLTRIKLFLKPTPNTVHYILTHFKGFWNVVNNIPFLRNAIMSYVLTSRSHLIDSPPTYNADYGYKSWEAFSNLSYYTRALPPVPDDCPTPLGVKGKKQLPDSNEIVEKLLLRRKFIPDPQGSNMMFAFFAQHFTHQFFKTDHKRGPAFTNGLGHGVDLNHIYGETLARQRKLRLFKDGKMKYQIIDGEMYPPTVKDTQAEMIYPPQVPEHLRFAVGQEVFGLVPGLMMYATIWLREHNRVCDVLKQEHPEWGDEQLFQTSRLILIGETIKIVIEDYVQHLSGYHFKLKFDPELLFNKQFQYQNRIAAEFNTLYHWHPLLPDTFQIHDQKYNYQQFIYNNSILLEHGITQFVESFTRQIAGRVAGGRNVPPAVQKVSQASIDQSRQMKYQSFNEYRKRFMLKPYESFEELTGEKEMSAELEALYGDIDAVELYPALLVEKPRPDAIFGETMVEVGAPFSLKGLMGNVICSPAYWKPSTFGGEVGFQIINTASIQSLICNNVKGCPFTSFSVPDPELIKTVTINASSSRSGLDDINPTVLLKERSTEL
assay-procedure: Inhibition of human recombinant COX2-mediated PGE2 synthesis using PGH2 as substrate at 1 uM by LC-MS/MS analysis relative to control
measured-metric: inhibition

Please review the following examples before continuing.
CCCc1nc2ccc(NC(=O)c3ccccc3Cl)cc2c(=O)n1Cc1cccc(Cl)c1    < 0%
O=C(Nc1ccc2nc(Cc3ccccc3)n(Cc3cccc(Cl)c3)c(=O)c2c1)c1ccccc1Cl    < 0%
CCCc1nc2ccc(NC(=O)c3ccccc3C)cc2c(=O)n1Cc1cccc(Cl)c1    < 0%
CCCc1nc2ccc(NC(=O)c3ccccc3Cl)cc2c(=O)n1Cc1ccc(-c2cccc(Cl)c2)cc1    6.7%
CCCc1nc2ccc(NC(=O)c3ccccc3Cl)cc2c(=O)n1Cc1ccccc1Cl    < 0%
CCCc1nc2ccc(NC(=O)c3ccccc3Cl)cc2c(=O)n1Cc1ccc(-c2ccccc2)cc1    5.8%
CCCc1nc2ccc(NC(=O)c3ccccc3Cl)cc2c(=O)n1Cc1ccc(-c2cccc(OC)c2)cc1    2.5%
CCCc1nc2ccc(NC(=O)c3c(F)cccc3Cl)cc2c(=O)n1Cc1cccc(Cl)c1    < 0%

Next compound, inhibition to be filled in.
Req: Consider the compound shown here: `CCCc1nc2ccc(NC(=O)c3ccccc3Cl)cc2c(=O)n1Cc1ccc(-c2ccc(Cl)cc2)cc1` What is its recorded inhibition?
Resp: < 0%
